Measurement target: hCA II (Homo sapiens, UniProt P00918)
Construct: made in house
Assay comment: stopped-flow CO2 hydrase assay, hCA II
Type: biochemical
Measurement conditions: recombinant enzyme; errors ± 5–10%, 3 assays; read-out: Ki hCA II
Ki values by entry
Experimental endpoint: Ki (µM)

CCOC(=O)C1CCN(c2ccc(C(=O)O)cc2[N+](=O)[O-])CC1 [Compound 6] ... 8.05
O=C(O)c1ccc(Sc2ccccc2C(=O)O)c([N+](=O)[O-])c1 [Compound 4] ... 2.63
Cc1cc(C(=O)Nc2cc(C(=O)O)cc([N+](=O)[O-])c2)no1 [Compound 9] ... 8.5
O=C(O)c1ccc(Sc2nnc(-c3cccc(Br)c3)o2)c([N+](=O)[O-])c1 [Compound 1] ... 0.655
